Entry source: patent US20060160820A1

System: Hormone-sensitive lipase (HSL) (Homo sapiens)
Construct: made in house
Sequence (Q05469 302-1076, species assumed): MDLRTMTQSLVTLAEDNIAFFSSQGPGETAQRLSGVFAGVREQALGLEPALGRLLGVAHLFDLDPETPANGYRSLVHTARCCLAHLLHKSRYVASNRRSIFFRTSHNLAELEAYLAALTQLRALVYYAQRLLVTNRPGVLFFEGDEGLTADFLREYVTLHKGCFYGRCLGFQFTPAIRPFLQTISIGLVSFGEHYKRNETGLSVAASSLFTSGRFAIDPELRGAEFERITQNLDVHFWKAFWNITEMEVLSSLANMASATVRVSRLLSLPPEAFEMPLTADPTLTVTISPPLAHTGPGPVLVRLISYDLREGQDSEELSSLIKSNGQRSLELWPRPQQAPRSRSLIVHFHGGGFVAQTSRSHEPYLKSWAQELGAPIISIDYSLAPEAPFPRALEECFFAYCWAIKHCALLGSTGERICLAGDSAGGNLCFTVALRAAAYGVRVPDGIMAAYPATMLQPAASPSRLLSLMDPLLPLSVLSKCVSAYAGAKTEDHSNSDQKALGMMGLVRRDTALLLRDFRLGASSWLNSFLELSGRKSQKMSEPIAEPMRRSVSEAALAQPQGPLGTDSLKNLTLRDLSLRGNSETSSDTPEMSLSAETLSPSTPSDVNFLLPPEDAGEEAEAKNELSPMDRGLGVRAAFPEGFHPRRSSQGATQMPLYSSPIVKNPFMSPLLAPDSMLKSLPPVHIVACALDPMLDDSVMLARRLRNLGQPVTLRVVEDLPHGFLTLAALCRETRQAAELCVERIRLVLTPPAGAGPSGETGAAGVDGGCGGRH
Assay comment: 3190.1: percent inhibition of hormone sensitive lipase, fluorochrome-labeled triacylglyceride emulsion
Type: biochemical
Condition label: 10 μM sample concentration; preincubated 30 min at 25° C.; 120 min incubation at 37° C.; remaining activity; read-out: 3190.1 HSL_FL % ACTIVITY (% activity relative to non-inhibited sample)
Values of activity at 10 µM strictly less than 2% map to Satisfied, and values of at least 2% map to Not satisfied.

# Compound, Label value
rows = [
    ("O=C(Oc1ccc(Oc2ccc(C(F)(F)F)cn2)cc1)N1CCN(CCCc2cccnc2)CC1 [Example 8]", "Satisfied"),
    ("CC1(C)CC(=O)N(CCc2ccc(OC(=O)N3CCN(CCc4ccccn4)CC3)cc2)C(=O)C1 [Example 7]", "Not satisfied"),
    ("CC1(C)CC(=O)N(c2ccc(OC(=O)N3CCN(Cc4ccccn4)CC3)nc2)C(=O)C1 [Example 4]", "Not satisfied"),
    ("O=C(Oc1ccc(Cc2ccc(C(F)(F)F)cc2)cc1)N1CCN(CCc2ccccn2)CC1 [Example 1]", "Not satisfied"),
    ("O=C(Oc1ccc(Cc2ccc(C(F)(F)F)cc2)cc1)N1CCN(Cc2ccccn2)CC1 [Example 2]", "Not satisfied"),
]
